# TEST_SYSTEM: human complement protein C3 (human, UniProt P01024 23-1663)
# Sequence (P01024 23-1663 limits assumed): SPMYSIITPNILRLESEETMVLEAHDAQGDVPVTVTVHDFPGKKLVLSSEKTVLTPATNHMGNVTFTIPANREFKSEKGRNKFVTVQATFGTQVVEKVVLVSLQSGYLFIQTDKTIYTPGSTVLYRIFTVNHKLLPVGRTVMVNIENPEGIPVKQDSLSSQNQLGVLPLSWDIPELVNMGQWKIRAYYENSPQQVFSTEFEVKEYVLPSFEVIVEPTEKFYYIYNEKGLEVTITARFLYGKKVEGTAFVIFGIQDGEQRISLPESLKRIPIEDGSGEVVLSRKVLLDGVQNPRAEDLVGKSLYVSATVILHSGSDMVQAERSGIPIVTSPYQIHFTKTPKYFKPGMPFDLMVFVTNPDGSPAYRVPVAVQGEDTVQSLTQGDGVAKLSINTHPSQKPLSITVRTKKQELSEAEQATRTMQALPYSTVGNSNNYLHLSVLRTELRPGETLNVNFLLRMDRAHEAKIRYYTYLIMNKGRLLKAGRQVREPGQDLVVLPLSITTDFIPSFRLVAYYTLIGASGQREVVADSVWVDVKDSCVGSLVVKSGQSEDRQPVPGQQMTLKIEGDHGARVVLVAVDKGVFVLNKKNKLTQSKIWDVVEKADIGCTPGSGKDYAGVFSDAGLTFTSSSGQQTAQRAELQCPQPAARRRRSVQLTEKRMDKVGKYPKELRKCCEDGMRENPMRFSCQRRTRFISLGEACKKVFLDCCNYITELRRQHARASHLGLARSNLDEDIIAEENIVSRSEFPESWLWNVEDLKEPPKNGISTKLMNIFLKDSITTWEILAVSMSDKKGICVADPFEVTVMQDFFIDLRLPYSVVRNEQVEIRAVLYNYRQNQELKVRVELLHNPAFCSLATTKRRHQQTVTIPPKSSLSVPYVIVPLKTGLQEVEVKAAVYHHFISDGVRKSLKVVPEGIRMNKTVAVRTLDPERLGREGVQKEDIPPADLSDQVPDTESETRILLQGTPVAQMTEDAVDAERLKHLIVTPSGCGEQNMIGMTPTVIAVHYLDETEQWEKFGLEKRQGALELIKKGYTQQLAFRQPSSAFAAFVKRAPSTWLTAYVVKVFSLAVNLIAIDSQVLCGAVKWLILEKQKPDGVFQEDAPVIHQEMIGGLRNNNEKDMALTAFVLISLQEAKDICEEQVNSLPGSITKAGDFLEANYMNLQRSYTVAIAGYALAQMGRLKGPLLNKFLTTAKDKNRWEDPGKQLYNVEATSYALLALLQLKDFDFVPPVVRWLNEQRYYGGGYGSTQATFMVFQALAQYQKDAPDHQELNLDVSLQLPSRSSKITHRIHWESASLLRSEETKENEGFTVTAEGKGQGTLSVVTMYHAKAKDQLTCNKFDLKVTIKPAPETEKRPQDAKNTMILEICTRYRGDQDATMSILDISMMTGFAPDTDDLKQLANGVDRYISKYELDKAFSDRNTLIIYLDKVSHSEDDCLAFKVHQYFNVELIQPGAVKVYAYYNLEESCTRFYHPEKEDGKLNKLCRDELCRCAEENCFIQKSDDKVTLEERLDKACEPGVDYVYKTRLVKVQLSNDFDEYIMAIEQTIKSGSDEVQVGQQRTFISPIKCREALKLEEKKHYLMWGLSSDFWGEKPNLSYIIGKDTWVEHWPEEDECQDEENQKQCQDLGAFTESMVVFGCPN
# ASSAY_INFO: cell-based or functional assay
Bridge positions count the residues as written; N and C are the ends. Square brackets hold non-standard residues; d marks the D form. Nal = 1-naphthylalanine or 2-naphthylalanine; Trp(1-Me) = Cn1cc(C[C@H](N)C(=O)O)c2ccccc21
READOUT: Lysis IC50
Give the value; after it, write the unit.

Some solved cases for reference:
>>> recorded_result("Ac-ICV[Trp(1-Me)]QDWG[Nal]HRCT-NH2 (disulfide 2-12; not fully specified; printed as Ac-ICV{meW}QDWG{Nal}HRCT-NH2) [Peptide 2.1, Ac-ICVmeWQDWG{Nal}HRCT-NH2]")
"900 nM"
>>> recorded_result("Ac-NNLCVWQDWG[Nal]HRCT-NH2 (disulfide 4-14; not fully specified; printed as Ac-NN-LCVWQDWG{Nal}HRCT-NH2) [Peptide 4.2, Ac-NN-LCVWQDWG{Nal}HRCT-NH2]")
"2100 nM"
>>> recorded_result("Ac-NRLCVWQDWG[Nal]HRCT-NH2 (disulfide 4-14; not fully specified; printed as Ac-NR-LCVWQDWG{Nal}HRCT-NH2) [Peptide 4.3, Ac-NR-LCVWQDWG{Nal}HRCT-NH2]")
"1200 nM"

Q. # lookup: Lysis IC50 of Ac-RSICVWQDWG[Nal]HRCT-NH2 (disulfide 4-14; not fully specified; printed as Ac-RS-ICVWQDWG{Nal}HRCT-NH2) [Peptide 4.4, Ac-RS-ICVWQDWG{Nal}HRCT-NH2]
A. 1800 nM
